biological target: human AMPA receptor GluA4o (GluA4 flop) (Homo sapiens, UniProt P48058, A778Q/D799G/G801D/K798G/P767A/P797S/S776N/S800G/T766N/V780L); assay: Glutamate-evoked currents, oocytes expressing recombinant human AMPA receptors
Sequence (P48058 21-902 T766N/P767A/S776N/A778Q/V780L/P797S/K798G/D799G/S800G/G801D): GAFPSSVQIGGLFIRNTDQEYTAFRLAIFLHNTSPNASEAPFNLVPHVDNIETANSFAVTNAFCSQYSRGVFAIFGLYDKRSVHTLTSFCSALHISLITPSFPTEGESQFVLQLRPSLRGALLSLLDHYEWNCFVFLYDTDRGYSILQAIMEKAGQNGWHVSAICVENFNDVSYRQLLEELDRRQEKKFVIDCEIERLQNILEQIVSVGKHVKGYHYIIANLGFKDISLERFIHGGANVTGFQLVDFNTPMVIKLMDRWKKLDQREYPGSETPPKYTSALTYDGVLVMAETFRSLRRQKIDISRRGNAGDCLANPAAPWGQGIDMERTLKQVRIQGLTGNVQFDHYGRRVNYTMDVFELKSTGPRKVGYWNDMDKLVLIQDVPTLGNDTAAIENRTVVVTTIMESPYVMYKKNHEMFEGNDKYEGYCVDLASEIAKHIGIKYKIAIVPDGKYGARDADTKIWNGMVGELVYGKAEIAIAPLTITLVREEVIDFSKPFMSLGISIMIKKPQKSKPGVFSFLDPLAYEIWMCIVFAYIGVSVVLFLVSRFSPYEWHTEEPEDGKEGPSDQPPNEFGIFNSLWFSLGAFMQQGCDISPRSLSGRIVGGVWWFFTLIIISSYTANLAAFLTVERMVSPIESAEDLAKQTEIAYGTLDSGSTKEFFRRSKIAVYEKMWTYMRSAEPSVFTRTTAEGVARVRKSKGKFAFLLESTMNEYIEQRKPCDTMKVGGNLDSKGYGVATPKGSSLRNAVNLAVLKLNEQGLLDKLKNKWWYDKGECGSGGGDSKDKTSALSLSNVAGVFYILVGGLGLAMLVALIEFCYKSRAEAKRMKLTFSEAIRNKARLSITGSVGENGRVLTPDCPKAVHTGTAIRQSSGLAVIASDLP

compound	EC50, nM
O=C1c2cc3nnn(CCc4cccc(F)c4)c(=O)c3cc2OCN1C1CC1 [S 47445]	700

* * *

target: human AMPA receptor GluA4i (GluA4 flip) (Homo sapiens, UniProt P48058); assay: Glutamate-evoked currents, oocytes expressing recombinant human AMPA receptors
Sequence (P48058 21-902): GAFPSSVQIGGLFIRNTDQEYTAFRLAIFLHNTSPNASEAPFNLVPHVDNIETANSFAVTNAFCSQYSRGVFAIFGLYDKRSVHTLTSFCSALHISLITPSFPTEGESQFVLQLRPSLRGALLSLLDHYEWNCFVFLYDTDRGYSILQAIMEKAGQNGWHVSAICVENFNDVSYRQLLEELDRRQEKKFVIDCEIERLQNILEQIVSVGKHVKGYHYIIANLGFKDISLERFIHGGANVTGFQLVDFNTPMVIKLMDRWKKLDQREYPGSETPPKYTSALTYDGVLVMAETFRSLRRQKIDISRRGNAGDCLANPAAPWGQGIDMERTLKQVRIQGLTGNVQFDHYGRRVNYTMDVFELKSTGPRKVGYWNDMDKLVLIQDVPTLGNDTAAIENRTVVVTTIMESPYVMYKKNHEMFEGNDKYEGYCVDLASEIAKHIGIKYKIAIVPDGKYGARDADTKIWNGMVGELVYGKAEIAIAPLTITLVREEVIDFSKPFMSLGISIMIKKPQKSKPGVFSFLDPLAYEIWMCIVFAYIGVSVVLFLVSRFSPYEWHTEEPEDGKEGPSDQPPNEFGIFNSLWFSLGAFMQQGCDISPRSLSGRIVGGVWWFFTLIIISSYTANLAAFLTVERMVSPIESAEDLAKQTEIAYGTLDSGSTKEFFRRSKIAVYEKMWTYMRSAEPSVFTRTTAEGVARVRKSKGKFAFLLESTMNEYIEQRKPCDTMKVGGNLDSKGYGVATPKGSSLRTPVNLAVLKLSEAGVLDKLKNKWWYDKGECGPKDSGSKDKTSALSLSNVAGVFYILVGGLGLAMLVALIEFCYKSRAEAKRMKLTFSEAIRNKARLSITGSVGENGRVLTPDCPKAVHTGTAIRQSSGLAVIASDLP
measurement_type: EC50 (µM)

1) O=C1c2cc3nnn(CCc4cccc(F)c4)c(=O)c3cc2OCN1C1CC1 3

* * *

target: human AMPA receptor GluA1o/2i (Homo sapiens, UniProt P42261+P42262, Q607R); test: Glutamate-evoked currents, oocytes expressing recombinant human AMPA receptors
Sequence (P42261 19-906): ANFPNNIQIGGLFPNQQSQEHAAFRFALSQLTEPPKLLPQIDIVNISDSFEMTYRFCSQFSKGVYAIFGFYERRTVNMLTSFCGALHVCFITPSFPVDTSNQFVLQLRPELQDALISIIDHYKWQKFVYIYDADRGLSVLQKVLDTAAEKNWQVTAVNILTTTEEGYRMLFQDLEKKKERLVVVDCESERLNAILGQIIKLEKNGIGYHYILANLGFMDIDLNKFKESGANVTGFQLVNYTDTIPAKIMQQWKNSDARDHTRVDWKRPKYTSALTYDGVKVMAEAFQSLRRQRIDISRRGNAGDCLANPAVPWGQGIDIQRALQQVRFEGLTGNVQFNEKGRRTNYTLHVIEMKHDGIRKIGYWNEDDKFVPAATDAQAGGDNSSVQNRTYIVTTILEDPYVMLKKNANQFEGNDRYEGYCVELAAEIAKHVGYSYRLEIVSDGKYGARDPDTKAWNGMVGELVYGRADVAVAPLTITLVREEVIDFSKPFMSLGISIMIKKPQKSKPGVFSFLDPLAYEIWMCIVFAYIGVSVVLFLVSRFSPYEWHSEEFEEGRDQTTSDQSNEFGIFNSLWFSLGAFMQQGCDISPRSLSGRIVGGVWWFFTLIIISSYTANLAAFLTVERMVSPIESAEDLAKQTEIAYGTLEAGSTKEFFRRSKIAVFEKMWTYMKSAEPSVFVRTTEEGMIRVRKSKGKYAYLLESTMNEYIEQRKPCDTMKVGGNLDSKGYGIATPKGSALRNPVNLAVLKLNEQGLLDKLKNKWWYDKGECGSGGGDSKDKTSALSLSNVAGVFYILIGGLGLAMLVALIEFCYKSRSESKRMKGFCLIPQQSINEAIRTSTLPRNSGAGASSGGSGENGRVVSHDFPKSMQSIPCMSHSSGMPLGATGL
Sequence (P42262 22-883 isoform P42262-2 Q607R limits assumed): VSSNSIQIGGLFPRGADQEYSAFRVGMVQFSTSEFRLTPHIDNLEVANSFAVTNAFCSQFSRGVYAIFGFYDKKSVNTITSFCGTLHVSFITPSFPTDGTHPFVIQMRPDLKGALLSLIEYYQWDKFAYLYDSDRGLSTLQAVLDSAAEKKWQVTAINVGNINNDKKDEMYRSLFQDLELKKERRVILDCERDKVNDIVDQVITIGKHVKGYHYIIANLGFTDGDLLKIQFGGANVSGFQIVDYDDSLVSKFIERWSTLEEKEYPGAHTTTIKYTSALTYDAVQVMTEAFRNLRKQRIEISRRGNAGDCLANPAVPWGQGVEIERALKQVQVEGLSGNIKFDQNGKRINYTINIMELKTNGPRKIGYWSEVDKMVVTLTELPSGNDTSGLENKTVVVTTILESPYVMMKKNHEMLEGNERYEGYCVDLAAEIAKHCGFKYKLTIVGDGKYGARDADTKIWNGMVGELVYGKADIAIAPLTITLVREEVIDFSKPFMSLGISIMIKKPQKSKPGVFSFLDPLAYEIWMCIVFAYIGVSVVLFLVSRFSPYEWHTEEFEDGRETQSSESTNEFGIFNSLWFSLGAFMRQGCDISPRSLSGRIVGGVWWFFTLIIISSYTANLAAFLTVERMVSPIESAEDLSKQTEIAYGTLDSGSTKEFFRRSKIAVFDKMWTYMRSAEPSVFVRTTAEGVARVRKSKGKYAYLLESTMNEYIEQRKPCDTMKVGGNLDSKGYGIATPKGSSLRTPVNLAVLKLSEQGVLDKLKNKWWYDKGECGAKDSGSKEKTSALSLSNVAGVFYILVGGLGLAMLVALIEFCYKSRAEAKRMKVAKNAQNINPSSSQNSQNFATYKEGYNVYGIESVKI
pEC50: −log10 of the molar value.
measurement_type: pEC50

1. O=C1c2cc3nnn(CCc4cccc(F)c4)c(=O)c3cc2OCN1C1CC1 5.27

* * *

Catalogue of EC50 readings, one per entry.
Biological target: Rat AMPA receptors
Test: AMPA-evoked currents, Xenopus laevis oocytes injected with rat cortex poly(A+) mRNA (two-electrode voltage clamp)
Settings: potentiation of 10 μM AMPA-evoked current; geometric mean
Protocol: Compounds were tested by bath application.

compound	EC50 (µM)
O=C1c2cc3c(cc2OC2CCCN12)OCCO3 (centres unmarked)	17.3
NS(=O)(=O)c1cc2c(cc1Cl)NC(C1CC3C=CC1C3)NS2(=O)=O (centres unmarked) [Cyclothiazide]	8.83
CC(C)S(=O)(=O)NC[C@H](C)c1ccc(-c2ccc(CCNS(C)(=O)=O)cc2)cc1	0.37
CC(CNS(=O)(=O)C(C)C)c1ccc(-c2ccc(C#N)cc2)cc1 (centres unmarked)	3.01
O=S1(=O)N[C@H]2CCCN2c2ccccc21	125

* * *

molecular target: 5-HT1B (Rattus norvegicus, UniProt P28564); test: Binding assay, [125I]CYP (+ 30 μM (-)propranolol); details: probe [125I]CYP
Sequence (P28564 whole entry): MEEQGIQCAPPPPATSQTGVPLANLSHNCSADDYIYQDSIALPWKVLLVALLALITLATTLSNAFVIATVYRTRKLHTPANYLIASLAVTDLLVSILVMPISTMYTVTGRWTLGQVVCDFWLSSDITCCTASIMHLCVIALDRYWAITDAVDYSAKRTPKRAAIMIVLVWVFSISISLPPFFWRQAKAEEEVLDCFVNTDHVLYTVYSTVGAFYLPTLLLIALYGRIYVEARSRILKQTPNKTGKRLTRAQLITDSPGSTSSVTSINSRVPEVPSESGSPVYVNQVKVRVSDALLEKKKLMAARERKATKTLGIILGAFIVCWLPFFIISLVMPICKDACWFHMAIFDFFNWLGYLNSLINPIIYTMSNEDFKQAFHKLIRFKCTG

compound	assayed_system	units_label	inhibition at 100 nM
O=C1c2cc3nnn(CCc4cccc(F)c4)c(=O)c3cc2OCN1C1CC1 [S 47445]	5-HT1B (Rattus norvegicus, UniProt P28564)	%	-7

* * *

molecular target: GluA1flop/GluA2flip AMPA receptors (Homo sapiens, UniProt P42261+P42262, Q607R); construct: host or cells: Xenopus laevis oocytes; assay: 10 μM glutamate-evoked currents in Xenopus laevis oocytes expressing GluA1flop/GluA2flip (repetitive pulses, GYKI52466); type: cell-based; settings: EC50 of potentiation in presence of 100μM of GYKI52466, 10 μM glutamate; n = 3
Sequence (P42261 19-906): as the sequence (P42261 19-906) above
Sequence (P42262 22-883 isoform P42262-2 Q607R limits assumed): as the sequence (P42262 22-883 isoform P42262-2 Q607R limits assumed) above
pEC50: −log10 of the molar value.
measurement_type: pEC50

1) O=C1c2cc3nnn(CCc4cccc(F)c4)c(=O)c3cc2OCN1C1CC1 5.70

* * *

test system: Human AMPA receptors; assay: AMPA-evoked currents, Xenopus laevis oocytes injected with human hippocampal poly(A+) mRNA; assay type: cell-based; conditions: concentration giving a two-fold increase in current amplitude; geometric mean
measurement_type: EC2X (µM)

compound	observed_value
O=C1c2cc3nnn(CCc4cccc(F)c4)c(=O)c3cc2OCN1C1CC1	4.77
O=C1c2cc3c(cc2OC2CCCN12)OCCO3 (centres unmarked)	0.88
O=S1(=O)N[C@H]2CCCN2c2ccccc21	16.88
CC(CNS(=O)(=O)C(C)C)c1ccc(-c2ccc(C#N)cc2)cc1 (centres unmarked)	0.37
NS(=O)(=O)c1cc2c(cc1Cl)NC(C1CC3C=CC1C3)NS2(=O)=O (centres unmarked) [Cyclothiazide]	1.54

Each recorded value in this set is attributed to paper PMC5590943.
